- TEST SUMMARY: RNA encapsulation efficiency (modified Quant-iT RiboGreen assay) and loading
- Assay type: physicochemical
- CONDITION NOTES: FxNP, siFLuc, DSPC
ASSAY READOUT: Encapsulation efficiency (%)

CC12CCC3c4ccc(O)cc4CC(CCCCCCCCCS(=O)(CCCC(F)(F)C(F)(F)F)=NC(=O)CCN4CCOCC4)C3C1CCC2O (stereo not shown) [7d] : 88.3
CC12CCC3c4ccc(O)cc4CC(CCCCCCCCCS(=O)(CCCC(F)(F)C(F)(F)F)=NC(=O)CN4CCOCC4)C3C1CCC2O (stereo not shown) [7a] : 69.9
CN(C)CC(=O)N=S(=O)(CCCCCCCCCC1Cc2cc(O)ccc2C2CCC3(C)C(O)CCC3C12)CCCC(F)(F)C(F)(F)F (stereo not shown) [7f] : 94.8
CC12CCC3c4ccc(O)cc4CC(CCCCCCCCCS(=O)(CCCC(F)(F)C(F)(F)F)=NC(=O)CN4CCCC4)C3C1CCC2O (stereo not shown) [7h] : 86.4

====

- TEST SUMMARY: Zeta potential (Malvern Zetasizer)
- Format: physicochemical
- CONDITION NOTES: FxNP, siFLuc, DSPC
ASSAY READOUT: Zeta potential (mV)

CC12CCC3c4ccc(O)cc4CC(CCCCCCCCCS(=O)(CCCC(F)(F)C(F)(F)F)=NC(=O)CN4CCOCC4)C3C1CCC2O (stereo not shown) : −12.97

a = CN1CCN(CC(=O)N=S(=O)(CCCCCCCCCC2Cc3cc(O)ccc3C3CCC4(C)C(O)CCC4C23)CCCC(F)(F)C(F)(F)F)CC1 (stereo not shown)
b = CN(C)CCC(=O)N=S(=O)(CCCCCCCCCC1Cc2cc(O)ccc2C2CCC3(C)C(O)CCC3C12)CCCC(F)(F)C(F)(F)F (stereo not shown)
c = CC12CCC3c4ccc(O)cc4CC(CCCCCCCCCS(=O)(CCCC(F)(F)C(F)(F)F)=NC(=O)C[N+](C)(C)C)C3C1CCC2O (stereo not shown)
IN: Put the items in order so that reported Zeta potential (mV) rises from first to last. # format: label list in the order the request specifies
OUT: b, a, c

====

- TEST SUMMARY: Zeta potential (Malvern Zetasizer)
- Type: physicochemical
- CONDITION NOTES: FxNP, siFLuc, DOPC
ASSAY READOUT: Zeta potential (mV)

CC12CCC3c4ccc(O)cc4CC(CCCCCCCCCS(=O)(CCCC(F)(F)C(F)(F)F)=NC(=O)Cn4ccnc4)C3C1CCC2O (stereo not drawn) [7b] : −7.61

a = CC12CCC3c4ccc(O)cc4CC(CCCCCCCCCS(=O)(CCCC(F)(F)C(F)(F)F)=NC(=O)CN4CCCCC4)C3C1CCC2O (stereo not drawn) [7e]
b = CC12CCC3c4ccc(O)cc4CC(CCCCCCCCCS(=O)(CCCC(F)(F)C(F)(F)F)=NC(=O)CN4CCOCC4)C3C1CCC2O (stereo not drawn) [7a]
IN: // max by Zeta potential (mV) over [ a , b ] Mark your answer with the label of the selected entry.
OUT: a

====

- TEST SUMMARY: RNA encapsulation efficiency (modified Quant-iT RiboGreen assay) and loading
- Format: physicochemical
- CONDITION NOTES: FxNP, sinLuc, DOPC
- Text: […]
ASSAY READOUT: siRNA mass % (%)

CN(C)CC(=O)N=S(=O)(CCCCCCCCCC1Cc2cc(O)ccc2C2CCC3(C)C(O)CCC3C12)CCCC(F)(F)C(F)(F)F (stereo not shown) : 4.8
CC12CCC3c4ccc(O)cc4CC(CCCCCCCCCS(=O)(CCCC(F)(F)C(F)(F)F)=NC(=O)CCn4ccnc4)C3C1CCC2O (stereo not shown) : 3.8
CC12CCC3c4ccc(O)cc4CC(CCCCCCCCCS(=O)(CCCC(F)(F)C(F)(F)F)=NC(=O)CCN4CCOCC4)C3C1CCC2O (stereo not shown) : 3.8
CC12CCC3c4ccc(O)cc4CC(CCCCCCCCCS(=O)(CCCC(F)(F)C(F)(F)F)=NC(=O)CN4CCOCC4)C3C1CCC2O (stereo not shown) : 4.0
CC12CCC3c4ccc(O)cc4CC(CCCCCCCCCS(=O)(CCCC(F)(F)C(F)(F)F)=NC(=O)Cn4ccnc4)C3C1CCC2O (stereo not shown) : 4.4
CC12CCC3c4ccc(O)cc4CC(CCCCCCCCCS(=O)(CCCC(F)(F)C(F)(F)F)=NC(=O)CCN4CCCCC4)C3C1CCC2O (stereo not shown) : 4.7
CC12CCC3c4ccc(O)cc4CC(CCCCCCCCCS(=O)(CCCC(F)(F)C(F)(F)F)=NC(=O)CN4CCCCC4)C3C1CCC2O (stereo not shown) : 4.5
